Hello, the source for this data is ChEMBL document CHEMBL4622985, in case you need it.

- testedTarget: 5-hydroxytryptamine receptor 2A (Homo sapiens, UniProt P28223)
- Sequence (P28223 whole entry): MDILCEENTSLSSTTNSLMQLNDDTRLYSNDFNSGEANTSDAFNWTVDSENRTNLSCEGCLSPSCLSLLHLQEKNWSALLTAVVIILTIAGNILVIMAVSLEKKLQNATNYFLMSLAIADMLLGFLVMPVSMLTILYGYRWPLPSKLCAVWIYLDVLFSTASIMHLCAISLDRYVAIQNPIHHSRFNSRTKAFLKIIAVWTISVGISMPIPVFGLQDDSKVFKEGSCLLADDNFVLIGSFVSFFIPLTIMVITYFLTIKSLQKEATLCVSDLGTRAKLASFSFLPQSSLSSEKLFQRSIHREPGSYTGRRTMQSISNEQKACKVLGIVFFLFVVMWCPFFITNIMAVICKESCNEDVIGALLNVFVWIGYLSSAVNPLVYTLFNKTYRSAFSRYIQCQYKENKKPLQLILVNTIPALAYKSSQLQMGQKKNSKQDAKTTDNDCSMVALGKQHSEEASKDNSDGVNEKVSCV
- methodDescription: Displacement of [3H]-ketanserin from human HT2A receptor expressed in HEK293 cell membranes incubated for 2 hrs by scintillation counting method
- experimentalContext: read-out: Ki
parameter: Ki (nM)

Answered cases to consult:
* COc1c(OCCOCCOCCOCCOc2ccc(C3CCN(c4ccn5c(CC6CC6)nnc5c4Cl)CC3)cc2)cccc1C(=O)C1CCN(CCc2ccc(F)cc2)CC1 | 33
* COc1c(OCCOCCOCCOCCOCCOCCOCCOCCOCCOCCOCCOCCOc2ccc(C3CCN(c4ccn5c(CC6CC6)nnc5c4Cl)CC3)cc2)cccc1C(=O)C1CCN(CCc2ccc(F)cc2)CC1 | 200
* COc1c(OCCOCCOCCOCCOCCOCCOCCOCCOCCOCCOc2ccc(C3CCN(c4ccn5c(CC6CC6)nnc5c4Cl)CC3)cc2)cccc1C(=O)C1CCN(CCc2ccc(F)cc2)CC1 | 79
* COc1c(OCCOCCOCCOCCOCCOCCOCCOCCOc2ccc(C3CCN(c4ccn5c(CC6CC6)nnc5c4Cl)CC3)cc2)cccc1C(=O)C1CCN(CCc2ccc(F)cc2)CC1 | 110

A. COc1cccc(C(=O)C2CCN(CCc3ccc(F)cc3)CC2)c1OC
B. COCCOc1cccc(C(=O)C2CCN(CCc3ccc(F)cc3)CC2)c1OC
Prompt: Identify the item whose Ki is the smaller number: A or B Kindly state the label of the option you pick.
Completion: A
(A: 0.52 nM, B: 3 nM)

A. COc1c(OCCOCCOCCOc2ccc(C3CCN(c4ccn5c(CC6CC6)nnc5c4Cl)CC3)cc2)cccc1C(=O)C1CCN(CCc2ccc(F)cc2)CC1
B. COc1c(OCCOCCOCCOCCOCCOc2ccc(C3CCN(c4ccn5c(CC6CC6)nnc5c4Cl)CC3)cc2)cccc1C(=O)C1CCN(CCc2ccc(F)cc2)CC1
Prompt: So which one has the bigger Ki here, A or B ? Kindly state the label of the option you pick.
Completion: A
(A: 360 nM, B: 130 nM)
